Exercise: for every item that follows, state its recorded TGI.
Tested on: HS 578T breast
Assay: NCI tumour cell line growth inhibition, 48 h
Numbers only; they are read as µM.

Report TGI for Cc1c(O)c(C)c2c(C)cn(C(=O)C(C)(C)C)c2c1C please.
77.2

Report TGI for O=[N+]([O-])c1cc2c(c3nonc13)OCCCCO2 please.
67.7

Report TGI for O=C(c1ccc(Cl)cc1)c1cnc(Nc2ccccc2Cl)s1 please.
68.8

Report TGI for Oc1ccc(-c2nc(-c3ccc(F)cc3)c(-c3ccc4ccccc4n3)[nH]2)cc1 please.
28.6

Report TGI for CCN(CC)c1nc(-c2ccc(Cl)cc2Cl)nc2ccccc12 please.
35.1

Report TGI for CC(/C=N\NC(=S)N1CCCCC1)=N/NC(=S)N1CCCCC1 please.
14.7

----------
Exercise: for every item that follows, state its recorded TGI.
System: SN12C renal
Assay: NCI tumour cell line growth inhibition, 48 h

Report TGI for Cn1c(=O)c2c(no[n+]2[O-])c2ccccc21 please.
59.8 µM

Report TGI for O=C1NC(=S)NNC12c1ccccc1-c1ccccc12 please.
> 10 µM

Report TGI for Cc1ccc(Cl)cc1Nc1nc(C(F)(F)F)ccc1C(=O)N1CCN(c2cccc(Cl)c2)CC1 please.
> 100 µM

Report TGI for O=c1cc(-c2ccccc2)[nH]c2c(S)cccc12 please.
> 100 µM

Report TGI for Cc1ccsc1/C=N/Nc1ccc2ccccc2n1 please.
> 100 µM

Report TGI for CCO/C=N/NC(=O)CSc1nc2ccc(I)cc2c(=O)n1Cc1ccccc1 please.
> 100 µM

Report TGI for CC(C)C[C@H]1[C@@H](OCc2ccccc2)COS(=O)N1[C@H](C)c1ccccc1 (stereo not given in full) please.
40.1 µM

Report TGI for COc1ccc(C(OCC2OC(n3cc(C)c(=O)[nH]c3=O)CC2n2cc(Cn3cc(Br)c(=O)[nH]c3=O)nn2)(c2ccccc2)c2ccccc2)cc1 (stereo not given) please.
> 100 µM

Report TGI for O=c1[nH]cc(COCCO)c(=O)[nH]1 please.
> 100 µM

Report TGI for CCOC(=O)c1ccc(C(=O)/C(C#N)=C2\CCCN2C)[nH]1 please.
> 100 µM

----------
Test system: NCI-H522 lung
Test: NCI tumour cell line growth inhibition, 48 h
Threshold rule: TGI greater than or equal to 4 µM is Condition met; below that, Condition not met.

I'd appreciate it if you could say whether COc1ccc(C(O)c2nccn2C)c(OC)c1 (centres undefined) has TGI at least equal to 4 µM.
Condition met

I'd appreciate it if you could say whether COC12C=C/C(=C(/C(=O)OCc3ccncc3)C(=O)CCCCCCCCC3(OC)C=C/C(=C(/C(=O)OCc4ccncc4)C(=O)CCCCCCCC1)O3)O2 has TGI at least equal to 4 µM.
Condition not met

I'd appreciate it if you could say whether O=C(NCCCCN=c1cccccc1NCCCCNC(=O)OCc1ccccc1)OCc1ccccc1 has TGI at least equal to 4 µM.
Condition met

I'd appreciate it if you could say whether COc1cc(C2SCC(=O)N2c2ccc(Cl)c(Cl)c2)cc(OC)c1OC (centres undefined) has TGI at least equal to 4 µM.
Condition met

I'd appreciate it if you could say whether O=C(N/N=C1/C(=O)N(c2ccc(Cl)cc2Cl)C(=O)C(=O)C1c1nc2ccccc2o1)c1ccccc1O (centres undefined) has TGI at least equal to 4 µM.
Condition met

I'd appreciate it if you could say whether C[C@@H]1CCC2[C@@H](C)[C@@H](OCCO[C@H]3OC4O[C@@]5(C)CCC6[C@H](C)CCC([C@H]3C)[C@@]46OO5)OC3O[C@@]4(C)CCC1[C@]32OO4 (some centres undefined) has TGI at least equal to 4 µM.
Condition met

I'd appreciate it if you could say whether CCN(CC)c1nc(-c2ccc(Cl)cc2Cl)nc2ccccc12 has TGI at least equal to 4 µM.
Condition met

I'd appreciate it if you could say whether CN(C)/C=N/n1c2ccccc2c2ccccc21 has TGI at least equal to 4 µM.
Condition met

I'd appreciate it if you could say whether O=c1n(-c2ccccc2)c(=O)n2n1C1C=CC2C2C(C1)C2(Cl)Cl (centres undefined) has TGI at least equal to 4 µM.
Condition met

I'd appreciate it if you could say whether Cc1nc2cnc(N)c(C#Cc3cncc(C(=O)Nc4ccc(CN5CCN(C)CC5)c(C(F)(F)F)c4)c3)c2nc1C has TGI at least equal to 4 µM.
Condition not met

I'd appreciate it if you could say whether O=C(CC(O)(C(F)(F)F)C(F)(F)F)c1cc(CC(=O)C(O)(C(F)(F)F)C(F)(F)F)cc(CC(=O)C(O)(C(F)(F)F)C(F)(F)F)c1 has TGI at least equal to 4 µM.
Condition met

I'd appreciate it if you could say whether COc1cccc2c1C(=O)c1c(O)c3c(c(O)c1C2=O)CC(O)(/C(C)=N/NC(=O)CCC(=O)N/N=C(\C)C1(O)Cc2c(O)c4c(c(O)c2C(OC2CC(N)C(O)C(C)O2)C1)C(=O)c1c(OC)cccc1C4=O)CC3OC1CC(N)C(O)C(C)O1 (centres undefined) has TGI at least equal to 4 µM.
Condition not met

I'd appreciate it if you could say whether CCCNC(=S)/N=C/c1c(O)c2ccccc2[nH]c1=O has TGI at least equal to 4 µM.
Condition met

I'd appreciate it if you could say whether CC(=C\c1ccccc1)/C=C(\C#N)C(N)=O has TGI at least equal to 4 µM.
Condition met
